Values were extracted from patent US20130210807A1.

- tgt: human mGluR4 (Homo sapiens, UniProt Q14833)
- Construct: expressed in transfected cells; host or cells: HEK-293
- Sequence (Q14833 33-912): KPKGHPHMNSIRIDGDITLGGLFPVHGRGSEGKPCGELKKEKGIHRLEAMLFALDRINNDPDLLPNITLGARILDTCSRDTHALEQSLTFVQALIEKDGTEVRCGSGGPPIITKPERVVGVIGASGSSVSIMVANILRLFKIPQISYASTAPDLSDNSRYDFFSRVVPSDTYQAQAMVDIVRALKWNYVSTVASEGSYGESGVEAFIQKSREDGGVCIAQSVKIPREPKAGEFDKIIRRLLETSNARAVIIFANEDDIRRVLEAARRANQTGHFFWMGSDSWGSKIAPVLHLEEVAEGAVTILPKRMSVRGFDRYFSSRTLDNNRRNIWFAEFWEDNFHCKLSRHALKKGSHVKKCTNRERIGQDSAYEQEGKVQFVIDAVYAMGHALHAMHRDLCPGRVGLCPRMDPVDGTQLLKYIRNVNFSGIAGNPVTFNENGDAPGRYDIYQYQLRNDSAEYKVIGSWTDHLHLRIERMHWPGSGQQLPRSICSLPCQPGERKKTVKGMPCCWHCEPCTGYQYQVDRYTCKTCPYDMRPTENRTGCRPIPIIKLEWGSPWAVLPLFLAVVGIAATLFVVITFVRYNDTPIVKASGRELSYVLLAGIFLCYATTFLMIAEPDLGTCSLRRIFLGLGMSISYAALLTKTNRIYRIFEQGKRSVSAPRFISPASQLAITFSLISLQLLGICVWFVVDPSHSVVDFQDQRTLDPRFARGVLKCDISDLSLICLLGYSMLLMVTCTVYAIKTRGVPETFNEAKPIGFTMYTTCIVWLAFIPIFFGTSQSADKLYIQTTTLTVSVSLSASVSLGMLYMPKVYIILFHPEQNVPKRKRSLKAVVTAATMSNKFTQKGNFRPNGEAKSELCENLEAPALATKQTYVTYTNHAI
- method: mGluR4 Assay on HEK-Expressing Human mGluR4 (FLIPR Ca2+ fluorescence, PAM activity)
- Type: cell-based
- condition-info: Table I; human mGluR4 HEK-293 cells, Fluo4-AM/FLIPR, stimulated with glutamate EC25
- Protocol: mGluR4 Assay on HEK-Expressing Human mGluR4 Since, as explained above, the compounds of the present invention are positive allosteric modulators of mGluR4 receptors, which activity was assayed by detecting changes in intracellular Ca^+2 ion concentration using a Ca^+2-sensitive fluorescent dye (Fluo4-(AM)) and a fluorometric imaging plate reader (FLIPR, Molecular Devices, Sunnyvale, Calif.) in accordance with the manufacturers instructions. […]
I'd be grateful if you could share measured EC50 for these entries.
One number for each entry, in nM.

// worked examples, EC50 included
>>> result_number("CC1(C)Cc2[nH]ncc2-c2nc(Nc3ncc(F)cn3)sc21")
753
>>> result_number("Cc1nc(Nc2nc3c(s2)C(C)(C)Cc2[nH]ncc2-3)ncc1F")
645

Next item in the queue.
Value of measured EC50 for the entry "Cc1ccnc(Nc2nc3c(s2)C2(CC2)Cc2[nH]ncc2-3)n1" : 545
